Source listed as PubChem BioAssay (NCI).

system: LOX IMVI melanoma; experiment: NCI-60 one-dose screen, 48 h (100 = growth as untreated, 0 = no growth, -100 = all killed); conditions: 10 µM
Compounds without any hit were thinned out: in the full panel of roughly 83,000, 20% have a hit. Active and inactive are the calls of the source. The calls were made as follows: active = growth percent below 10; inactive = the rest.
MEASUREMENT_KIND: growth

compound=O=C/C=C/c1ccc([N+](=O)[O-])cc1Cl measurement_kind=growth result="47.8% (inactive)"
compound=COc1ccc(NC(=O)CCn2cnc3c(cc(-c4ccccc4)n3-c3ccccc3)c2=O)cc1 measurement_kind=growth result="66.4% (inactive)"
compound=Cc1cn(C(=O)/C(Cl)=C(/Cl)C(=O)O)c2ccccc12 measurement_kind=growth result="93.7% (inactive)"
compound=Clc1cc(Cl)c(Cl)c(-c2nc(-c3cccnc3)cs2)c1 measurement_kind=growth result="64.4% (inactive)"
compound=Oc1[nH]c2ccccc2c1/C=c1/cc2c(c(-c3ccc(C(F)(F)F)cc3)n1)=Nc1ccccc1-2 measurement_kind=growth result="60.5% (inactive)"
compound=COc1ccc2nc(/C=C/c3ccc(N(C)C)cc3)sc2c1 measurement_kind=growth result="91.5% (inactive)"
compound="CCC(CCNc1cc(OC)cc2cccnc12)CN1C(=O)c2ccccc2C1=O (configuration not stated)" measurement_kind=growth result="90.6% (inactive)"
compound=C=CCn1ccc(=O)nc1SC measurement_kind=growth result="99.7% (inactive)"
compound=Cc1ccc(NS(=O)(=O)c2ccccc2)c(NS(=O)(=O)c2ccccc2)c1 measurement_kind=growth result="94.5% (inactive)"
compound=C#CCNCCN1C(=O)c2ccc3c4c(ccc(c24)C1=O)C(=O)N(CCNCC#C)C3=O measurement_kind=growth result="-3.21% (active)"
compound=CCN1CCN(c2nc(NNC(=O)c3cccc(OC)c3)nc(N3CCN(C(c4ccccc4)c4ccccc4)CC3)n2)CC1 measurement_kind=growth result="7.34% (active)"
compound="CC(=O)c1c(O)cc2c3c1OC(C)(C)C1CCC(C)(CC31)O2 (configuration not stated)" measurement_kind=growth result="97.9% (inactive)"
compound=CCCN(CCC)CCCNC(=O)c1cc2c(-c3ccc(OC)c(OC)c3)nn(C)c2s1 measurement_kind=growth result="10.2% (inactive)"
compound=Cc1c(C(=O)N[C@H](CO)Cc2ccccc2)[nH]c2ccc(Cl)cc2c1=O measurement_kind=growth result="97.9% (inactive)"
compound=CCOC(=O)CNC(=O)Nc1ccc(Oc2ccc(NC(=O)NCC(=O)OCC)cc2)cc1 measurement_kind=growth result="91.9% (inactive)"
compound=N#Cc1c(-c2ccccc2)nc(SCC(=O)N2CCOCC2)[nH]c1=O measurement_kind=growth result="91.9% (inactive)"
compound=COc1ccc(-c2csc(-c3cc(Cl)cc(Cl)c3Cl)n2)cc1 measurement_kind=growth result="83.1% (inactive)"
compound=C[C@]12CC[C@H]3[C@@H](CC=C4C[C@@H](O)CC[C@@]43C)[C@@H]1CC[C@@H]2C(=O)C/C=N/O measurement_kind=growth result="82% (inactive)"
compound=Cc1ccc(S(=O)(=O)Oc2ccccc2-c2ccccc2)cc1 measurement_kind=growth result="36% (inactive)"
compound=Cc1cc(C(C)(C)CC(C)(C)C)ccc1OCCOCC[N+](C)(C)Cc1ccccc1 measurement_kind=growth result="-92.9% (active)"
compound=C#Cc1ccc(-n2c(/C=C/c3cc(OC)c(OC)c(OC)c3)nc3ncccc3c2=O)cc1 measurement_kind=growth result="56.9% (inactive)"
compound="CCC(OC(=O)CC(C)C)c1ccccc1 (configuration not stated)" measurement_kind=growth result="96.1% (inactive)"
compound="CCN1CCOC1C(C)C (configuration not stated)" measurement_kind=growth result="102% (inactive)"
compound=O=[N+]([O-])c1cc2ncccc2c2ncccc12 measurement_kind=growth result="45.5% (inactive)"
compound=O=C1/C(=C/c2cccs2)CCC/C1=C\c1cccs1 measurement_kind=growth result="92.4% (inactive)"
compound=Nc1nsc(C(=O)c2ccc(O)cc2)n1 measurement_kind=growth result="89.3% (inactive)"
compound=CCOC(=O)C1=C(Nc2ccc(OC)cc2)C(N)=NC1=N measurement_kind=growth result="52% (inactive)"
compound=C=CCNCCCN1C(=O)c2ccc3c4c(ccc(c24)C1=O)C(=O)N(CCCNCC=C)C3=O measurement_kind=growth result="-77.5% (active)"
compound=CC(=O)N(O)c1ccc(/C=C/c2ccccc2)cc1 measurement_kind=growth result="25.9% (inactive)"
compound=COc1cc(-c2nc3ccc(C)cc3[nH]2)ccc1OCC(=O)N=Nc1c(O)[nH]c2ccccc12 measurement_kind=growth result="-97.7% (active)"
compound="COc1cc(C2C(C#N)=C(c3c[nH]c4ccccc34)Nc3nc(N)[nH]c(=O)c32)cc(OC)c1OC (configuration not stated)" measurement_kind=growth result="52% (inactive)"
compound=COc1ccc(-c2nc(-c3nc4ccc(C)cc4[nH]3)c3ccccn23)cc1 measurement_kind=growth result="46% (inactive)"
compound=COc1cccc(-c2nnc(COc3ccc(-c4nc5ccc(C)cc5[nH]4)cc3OC)o2)c1 measurement_kind=growth result="78.4% (inactive)"
compound=Cc1nc2scc(-c3ccc(Cl)cc3)n2c(=O)c1CCN1CCOCC1 measurement_kind=growth result="97.5% (inactive)"
compound=COc1ccc(-c2nnc(N3CCN(C(=O)CN4CCN(c5ccc(Cl)cc5)CC4)CC3)nc2-c2ccc(OC)cc2)cc1 measurement_kind=growth result="75.9% (inactive)"
compound=O=[N+]([O-])c1ccc(-c2nc(-c3ccccc3)c(-c3ccccc3)n2-c2ccccc2)cc1 measurement_kind=growth result="18.8% (inactive)"
compound="CCCCCN(CCCCC)C(C)C(O)c1ccc2cc(Cl)c3ccccc3c2c1 (configuration not stated)" measurement_kind=growth result="94.3% (inactive)"
compound=CC(=O)[C@H]1CC[C@H]2[C@@H]3CC[C@@H]4CC=C(C=O)C[C@]4(C)[C@H]3CC[C@]12C measurement_kind=growth result="93.7% (inactive)"
compound=COc1cc(-c2c(C#N)c(N)n3c(nc4ccccc43)c2C#N)cc(Br)c1OC measurement_kind=growth result="52.9% (inactive)"
compound="CCCC(C)c1ccc(OCCCCCCN2CCNCC2)cc1 (configuration not stated)" measurement_kind=growth result="-88.3% (active)"
compound=COc1c(-c2c3sc(=O)[nH]c3nc3c2c(=O)[nH]n3C(C)C)cc2c(c1OC)OCO2 measurement_kind=growth result="92.3% (inactive)"
compound=CCCCCc1cc[n+](CC(=O)c2ccc(Cl)cc2)cc1 measurement_kind=growth result="87.4% (inactive)"

###

test system: SK-MEL-2 melanoma; experiment: NCI-60 one-dose screen, 48 h (100 = growth as untreated, 0 = no growth, -100 = all killed); conditions: 10 µM
Compounds without any hit were thinned out: in the full panel of roughly 83,000, 20% have a hit.
MEASUREMENT_KIND: growth (%)

compound=N=C(N)c1ccc(-c2ccc(-c3ccccc3)s2)cc1F measurement_kind=growth measure_unit=% quantitative_result=-83.8
compound=COc1cc(/C=C/C(=O)c2cc(-c3ccc(F)cc3)ccc2O)cc(OC)c1OC measurement_kind=growth measure_unit=% quantitative_result=75.4
compound="O=C(c1ccccc1)C(Nc1ccccc1)c1ccccc1 (configuration not stated)" measurement_kind=growth measure_unit=% quantitative_result=90.9
compound=O=C1/C(=C/c2ccc([N+](=O)[O-])s2)Oc2ccc(Cl)cc21 measurement_kind=growth measure_unit=% quantitative_result=-53.7
compound=Cn1c(N)c(N=Cc2ccccc2)c(=O)n(C)c1=O measurement_kind=growth measure_unit=% quantitative_result=97.1
compound=COc1ccc(S(=O)(=O)Nc2ccc(OCc3nnc(-c4ccc(Cl)cc4)o3)c(F)c2)cc1 measurement_kind=growth measure_unit=% quantitative_result=40.6
compound="CCN1CCOC1C(C)C (configuration not stated)" measurement_kind=growth measure_unit=% quantitative_result=95.3
compound=Cc1ccc(C(=O)O)c(N)c1C measurement_kind=growth measure_unit=% quantitative_result=89.3
compound=COc1cccc2c1O/C(=C\c1ccc([N+](=O)[O-])s1)C2=O measurement_kind=growth measure_unit=% quantitative_result=43.3
compound=COc1cc(/C=C/C(=O)c2cc(-c3ccc(C(F)(F)F)cc3)ccc2O)cc(OC)c1OC measurement_kind=growth measure_unit=% quantitative_result=70.1
compound=C[n+]1c(/C=C/c2c[nH]c3ccccc23)ccc2ccccc21 measurement_kind=growth measure_unit=% quantitative_result=83.9
compound=CCCCn1c(=O)[nH]c2c(c1=O)C(c1ccc(Cl)cc1)c1c([nH]c(=O)n(CCCC)c1=O)N2 measurement_kind=growth measure_unit=% quantitative_result=108
compound=Cc1ccc2nc(-c3ccc(OCC(=O)N=Nc4c(O)[nH]c5ccccc45)cc3)[nH]c2c1 measurement_kind=growth measure_unit=% quantitative_result=104
compound="CCN(CC)CCn1c(=N)n(CC(O)c2ccc(Cl)c(Cl)c2)c2ccccc21 (configuration not stated)" measurement_kind=growth measure_unit=% quantitative_result=96.8
compound=Cc1cc(C#Cc2ccccc2)ccc1-n1c(/C=C/c2cc(O)ccc2O)nc2ccccc2c1=O measurement_kind=growth measure_unit=% quantitative_result=-12.9
compound=COc1ccc(/C=C2\SC(=S)N(CCCN3CCOCC3)C2=O)c(OC)c1 measurement_kind=growth measure_unit=% quantitative_result=99
compound="Nc1ccc(C2=CC(c3ccc(Cl)cc3)N3C=CSC3=N2)cc1 (configuration not stated)" measurement_kind=growth measure_unit=% quantitative_result=-49.9
compound=Cc1cc(C)c(/C=C2\C(=O)Nc3ccc(NC(=O)CCCCCCC(=O)NO)cc32)[nH]1 measurement_kind=growth measure_unit=% quantitative_result=-5.24
compound=c1ccc(C2CCCCC2)c(OCCCCCN2CCNCC2)c1 measurement_kind=growth measure_unit=% quantitative_result=82
compound=COc1ccc(Cn2cc3c(c2-c2ccccc2)CC(C)(C)c2cnoc2-3)cc1 measurement_kind=growth measure_unit=% quantitative_result=53
compound="Cn1c(=O)c2[nH]c(C(O)c3ccc(Cl)cc3)nc2n(C)c1=O (configuration not stated)" measurement_kind=growth measure_unit=% quantitative_result=96.4
compound=CCc1ccc(-c2nnc(COc3ccc(-c4nc5ccc(C)cc5[nH]4)cc3OC)o2)cc1 measurement_kind=growth measure_unit=% quantitative_result=104
